- Tested on: Shigella paradysentiae
Listing of entries alongside the reported MIC.
attribute measured: MIC (µg/mL)

                                   compound                  system  assay_value
0  Cn1nnnc1SCC1=C(C(=O)O)N2C(=O)C(NC(=O)CS(=O)(=O)CC(F)(F)F)[C@H]2SC1 (some centres unmarked)  Shigella paradysentiae          6.3
1  Cc1nnc(SCC2=C(C(=O)O)N3C(=O)C(NC(=O)CSCC(F)(F)F)[C@H]3SC2)s1 (some centres unmarked)  Shigella paradysentiae          1.6
2  Cn1nnnc1SCC1=C(C(=O)O)N2C(=O)C(NC(=O)CSCC(F)(F)F)[C@H]2SC1 (some centres unmarked)  Shigella paradysentiae          0.4
3  CC(=O)OCC1=C(C(=O)O)N2C(=O)C(NC(=O)CSCC(F)(F)F)C2SC1 (centres unmarked)  Shigella paradysentiae          6.3
4  Cn1nnnc1SCC1=C(C(=O)O)N2C(=O)C(NC(=O)C[S+]([O-])CC(F)(F)F)[C@H]2SC1 (some centres unmarked)  Shigella paradysentiae          0.4

---

Listing of entries alongside the reported MIC.
- System: Kleb. pneumo. SK 4200
- experiment description: MIC by standard agar inclusion method (Kleb. pneumo. SK 4200)
- Assay type: cell-based
attribute measured: MIC (µg/mL)

                                   compound                 system  attribute_measured  assay_value
0  Cn1nnnc1SCC1=C(C(=O)O)N2C(=O)C(NC(=O)CSCC(F)(F)F)[C@H]2SC1 (some centres unmarked)  Kleb. pneumo. SK 4200                 MIC          3.1
1  Cc1nnc(SCC2=C(C(=O)O)N3C(=O)C(NC(=O)CSCC(F)(F)F)[C@H]3SC2)s1 (some centres unmarked)  Kleb. pneumo. SK 4200                 MIC          6.3
2  Cn1nnnc1SCC1=C(C(=O)O)N2C(=O)C(NC(=O)CS(=O)(=O)CC(F)(F)F)[C@H]2SC1 (some centres unmarked)  Kleb. pneumo. SK 4200                 MIC          3.1
3  CC(=O)OCC1=C(C(=O)O)N2C(=O)C(NC(=O)CSCC(F)(F)F)C2SC1 (centres unmarked)  Kleb. pneumo. SK 4200                 MIC          6.3
4  Cn1nnnc1SCC1=C(C(=O)O)N2C(=O)C(NC(=O)C[S+]([O-])CC(F)(F)F)[C@H]2SC1 (some centres unmarked)  Kleb. pneumo. SK 4200                 MIC          0.8

---

- System: Kleb. pneumo. SK 1200
attribute measured: MIC (µg/mL)

>>> print(df.to_string())
                                   compound  attribute_measured  assay_value
0  Cc1nnc(SCC2=C(C(=O)O)N3C(=O)C(NC(=O)CSCC(F)(F)F)[C@H]3SC2)s1 (some centres unmarked) [Compound 2]                 MIC          3.1
1  Cn1nnnc1SCC1=C(C(=O)O)N2C(=O)C(NC(=O)CS(=O)(=O)CC(F)(F)F)[C@H]2SC1 (some centres unmarked) [Compound 5]                 MIC          3.1
2  Cn1nnnc1SCC1=C(C(=O)O)N2C(=O)C(NC(=O)CSCC(F)(F)F)[C@H]2SC1 (some centres unmarked) [Compound 3]                 MIC          1.6
3  Cn1nnnc1SCC1=C(C(=O)O)N2C(=O)C(NC(=O)C[S+]([O-])CC(F)(F)F)[C@H]2SC1 (some centres unmarked) [Compound 4]                 MIC          0.4
4  CC(=O)OCC1=C(C(=O)O)N2C(=O)C(NC(=O)CSCC(F)(F)F)C2SC1 (centres unmarked) [Compound 1]                 MIC          3.1
